- target desc: purified recombinant human HER2 protein (Homo sapiens (Human), UniProt P04626)
- Sequence (P04626 23-1255): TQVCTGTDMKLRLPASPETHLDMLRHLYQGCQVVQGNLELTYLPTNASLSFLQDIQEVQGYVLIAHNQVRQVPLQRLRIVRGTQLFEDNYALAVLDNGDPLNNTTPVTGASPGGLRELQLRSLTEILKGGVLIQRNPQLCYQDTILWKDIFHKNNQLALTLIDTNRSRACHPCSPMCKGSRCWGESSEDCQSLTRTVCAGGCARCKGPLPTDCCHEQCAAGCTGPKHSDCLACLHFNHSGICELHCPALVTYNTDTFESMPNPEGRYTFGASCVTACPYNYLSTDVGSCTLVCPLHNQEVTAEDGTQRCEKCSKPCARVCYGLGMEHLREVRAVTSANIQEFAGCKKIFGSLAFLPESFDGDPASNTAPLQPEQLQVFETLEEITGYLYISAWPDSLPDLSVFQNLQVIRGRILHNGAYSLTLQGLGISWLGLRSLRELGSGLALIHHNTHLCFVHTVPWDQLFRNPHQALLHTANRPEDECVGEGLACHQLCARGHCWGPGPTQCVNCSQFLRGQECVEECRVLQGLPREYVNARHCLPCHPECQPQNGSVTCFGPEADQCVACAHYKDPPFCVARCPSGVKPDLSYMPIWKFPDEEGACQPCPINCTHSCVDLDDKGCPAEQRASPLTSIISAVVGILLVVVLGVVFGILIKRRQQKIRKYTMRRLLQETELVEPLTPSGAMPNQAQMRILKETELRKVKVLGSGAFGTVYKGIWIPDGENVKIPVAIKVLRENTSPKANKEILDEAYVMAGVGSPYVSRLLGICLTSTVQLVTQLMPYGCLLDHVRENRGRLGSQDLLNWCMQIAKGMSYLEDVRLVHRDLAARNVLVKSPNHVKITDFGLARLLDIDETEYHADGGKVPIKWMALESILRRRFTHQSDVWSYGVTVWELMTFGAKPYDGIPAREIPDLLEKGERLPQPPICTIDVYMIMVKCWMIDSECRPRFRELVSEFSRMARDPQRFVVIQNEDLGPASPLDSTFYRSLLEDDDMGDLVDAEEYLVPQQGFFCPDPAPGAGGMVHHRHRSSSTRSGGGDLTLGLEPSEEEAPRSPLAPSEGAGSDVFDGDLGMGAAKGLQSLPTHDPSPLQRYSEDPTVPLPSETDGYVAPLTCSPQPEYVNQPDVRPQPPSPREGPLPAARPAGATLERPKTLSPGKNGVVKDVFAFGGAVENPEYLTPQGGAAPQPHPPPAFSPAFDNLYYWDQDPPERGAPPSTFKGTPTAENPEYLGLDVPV
- protocol summary: Measurement of inhibitory effect on HER2-phosphorylating activity (in vitro)
- Format: biochemical
- assay context: ATP 6 μM, 25° C., 40 minutes
pIC50: −log10 of the molar value.
I would appreciate it if you labelled entries 1 when pIC50 is 8 or higher, otherwise -1.

• C=CC(=O)N1CCC[C@@H](n2nc(C(=O)Nc3cc(C#N)c(CC(=O)N(C)C)cc3C)c3c(N)ncnc32)C1 = -1
• C=CC(=O)N1CCC[C@@H](n2nc(C(=O)Nc3cc(F)c(CC(=O)N(C)C)cc3Cl)c3c(N)ncnc32)C1 = 1

Q: Threshold query (pIC50 >= 8) on "C=CC(=O)N1CCC[C@@H](n2nc(C(=O)Nc3ccc(CC(=O)N(C)C)cc3)c3c(N)ncnc32)C1"
Result: -1

====

- System: HER2-overexpressing human stomach cancer cell line NCI-N87 cells
- protocol summary: Cytostatic activity against HER2-expressing cell line (NCI-N87), CellTiter-Glo
- Assay type: cell-based
- assay context: Homo sapiens, NCI-N87, 72 h; 3-day culture; read-out: NCI-N87 cell growth inhibitory activity IC50 value
Quick reference: IC50 of the listed items.
Field: numeric (nM). Do not append units.

Below, 2 compounds whose answers are already recorded.
• C=CC(=O)N1CCC[C@@H](n2nc(C(=O)Nc3ccc(CC(=O)N(C)C)c(C)c3C)c3c(N)ncnc32)C1 = 5
• C=CC(=O)N1CCC[C@@H](n2nc(C(=O)Nc3ccc(NC(=O)N(C)C)cc3C)c3c(N)ncnc32)C1 = 18

Now look at this entry.
Q: Find the recorded IC50 belonging to "C=CC(=O)N1CCC[C@@H](n2nc(C(=O)Nc3ccc(CC(=O)N4CCCC4)cc3C)c3c(N)ncnc32)C1" and report it.
Result: 26

====

- target desc: purified recombinant human HER2 protein (Homo sapiens (Human), UniProt P04626)
- protocol summary: Measurement of inhibitory effect on HER2-phosphorylating activity (in vitro)
- assay context: ATP 6 μM, 25° C., 40 minutes
IC50 strictly under 9 nM means class 1; at 9 nM or over means class 0.

Examples from the recorded data:
• C=CC(=O)N1CCC[C@@H](n2nc(C(=O)Nc3cc(Cl)c(CC(=O)N(C)C)cc3C)c3c(N)ncnc32)C1 = class 0
• C=CC(=O)N1CCC[C@@H](n2nc(C(=O)Nc3ccc(CC(=O)N(C)C)cc3CC)c3c(N)ncnc32)C1 = class 0
• C=CC(=O)N1CCC[C@@H](n2nc(C(=O)Nc3ccc(CC(=O)N(C)C)c(F)c3Cl)c3c(N)ncnc32)C1 = class 1

Q: Does the reported IC50 of the following compound sit strictly below 9 nM? "C=CC(=O)N1CCC[C@@H](n2nc(C(=O)Nc3cccc4c(CC(=O)N(C)C)ccnc34)c3c(N)ncnc32)C1"
Result: class 0

Q: Does the reported IC50 of the following compound sit strictly below 9 nM? "C=CC(=O)N1CC[C@@H](n2nc(C(=O)Nc3ccc(CC(=O)N(C)C)c(C)c3C)c3c(N)ncnc32)C1"
Result: class 0

Q: Does the reported IC50 of the following compound sit strictly below 9 nM? "C=CC(=O)N1CCC[C@@H](n2nc(C(=O)Nc3ccc(CC(=O)N(C)C)c(F)c3C)c3c(N)ncnc32)C1"
Result: class 1
